Molecular target: 2',5'-phosphodiesterase 12 (Homo sapiens, UniProt Q6L8Q7)
Sequence (Q6L8Q7 whole entry): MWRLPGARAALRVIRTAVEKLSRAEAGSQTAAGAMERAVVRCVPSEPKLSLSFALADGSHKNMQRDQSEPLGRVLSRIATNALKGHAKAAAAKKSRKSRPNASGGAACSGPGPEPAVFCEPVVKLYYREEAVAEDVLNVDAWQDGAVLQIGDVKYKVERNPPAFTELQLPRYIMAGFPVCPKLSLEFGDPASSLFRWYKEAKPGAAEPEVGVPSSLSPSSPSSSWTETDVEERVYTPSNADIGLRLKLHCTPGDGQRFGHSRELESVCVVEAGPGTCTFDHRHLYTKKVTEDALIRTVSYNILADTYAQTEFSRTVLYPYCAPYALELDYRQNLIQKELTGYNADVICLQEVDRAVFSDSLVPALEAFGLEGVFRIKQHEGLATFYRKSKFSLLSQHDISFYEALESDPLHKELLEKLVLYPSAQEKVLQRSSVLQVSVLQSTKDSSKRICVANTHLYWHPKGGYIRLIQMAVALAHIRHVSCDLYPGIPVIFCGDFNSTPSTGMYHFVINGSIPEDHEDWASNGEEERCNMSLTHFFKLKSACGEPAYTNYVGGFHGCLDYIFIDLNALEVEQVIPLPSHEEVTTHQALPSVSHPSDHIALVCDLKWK
measured-property: pKi
One number for each entry, as −log10 of the molar value.

Reported pKi for Cn1c(-c2c[nH]c3cc(C#N)ccc23)nc2ccc(C(=O)N3CCOC(c4ccccc4)C3CO)cc21 (stereo unspecified) was 7.76
